test system: TC-1-GR cells; experiment: cells; format: cell-based; settings: MTT, 48 h incubation; RRM1 over-expressing
Measured Attribute: IC50 (µM)
Please reply with the bare figure in µM and do not write the unit itself.

CCCCCCCCCCCCCCCCCC(=O)Nc1ccn([C@@H]2OC(CO)C(O)C2(F)F)c(=O)n1 (stereo partly drawn) :: 7.7
CCCCCCCCCCCCCCCCCC(=O)OCC(Cl)COP(=O)(O)OC[C@H]1O[C@@H](n2ccc(N)nc2=O)C(F)(F)[C@@H]1O (mixture of isomers) :: 76.3

Now for another entry.
Memo: CCCCCCCCCCCCCCCCCCOP(=O)(O)OC[C@H]1O[C@@H](n2ccc(NC(C)=O)nc2=O)C(F)(F)[C@@H]1O , reported IC50: 9.3

Origin of the recorded values: patent US20130131008A1
